Data provenance is patent US4927831A.

assayed_system: aldose reductase (Bos taurus, UniProt P16116)
Construct: preparation of the enzyme from bovine lens; from tissue; host or cells: bovine lens
protocol_summary: in vitro aldose reductase inhibition (modified Hayman and Kinoshita; enzyme from bovine lens)
Format: biochemical
experimental_context: 4 × 10^-8 M; read-out: % Inhibition IN VITRO
measurement_name: inhibition at 0.04 µM (%)
Field format: number, assumed %, no unit text.

INPUT: Find inhibition at 0.04 µM (aldose reductase (Bos taurus, UniProt P16116)) for the entry CCCN1C(=O)c2ccccc2C2(CC(=O)NC2=O)C1=O (stereo not shown)
OUTPUT: 8

INPUT: Query O=C1CC2(C(=O)N1)C(=O)N(Cc1ccc(Br)cc1F)C(=O)c1cc(F)ccc12 (stereo not shown) next
OUTPUT: 42

INPUT: Same read-out for COc1ccc2c(c1)C(=O)N(Cc1ccc(Br)cc1F)C(=O)C21CC(=O)NC1=O (stereo not shown) ?
OUTPUT: 72

INPUT: Repeat with O=C1CC2(C(=O)N1)C(=O)N(Cc1ccc(Br)cc1F)C(=O)c1c(F)cccc12 (stereo not shown)
OUTPUT: 43

INPUT: Can you handle CN1C(=O)c2cc(Cl)ccc2C2(CC(=O)NC2=O)C1=O (stereo not shown) next?
OUTPUT: 34

INPUT: Check COc1cc2c(cc1Br)C1(CC(=O)NC1=O)C(=O)N(Cc1ccc(Br)cc1F)C2=O (stereo not shown) too.
OUTPUT: 70

INPUT: Also need CN1C(=O)c2ccc(Cl)cc2C2(CC(=O)NC2=O)C1=O (stereo not shown) , thanks.
OUTPUT: 43

INPUT: Thanks! And O=C1CC2(C(=O)N1)C(=O)N(Cc1ccc(Br)cc1F)C(=O)c1cc(Cl)ccc12 (stereo not shown) ?
OUTPUT: 25

INPUT: Now try O=C1CC2(C(=O)N1)C(=O)N(Cc1ccc(Br)cc1F)C(=O)c1ccccc12 (stereo not shown) .
OUTPUT: 51

INPUT: Moving on to the next molecule: O=C1CC2(C(=O)N1)C(=O)N(Cc1ccc(Cl)c(Cl)c1)C(=O)c1ccccc12 (stereo not shown)
OUTPUT: 42

INPUT: Thanks! And O=C1CC2(C(=O)N1)C(=O)N(Cc1ccc(Br)cc1F)C(=O)c1ccc(Cl)cc12 (stereo not shown) ?
OUTPUT: 8

INPUT: Again, but for CCN1C(=O)c2ccccc2C2(CC(=O)NC2=O)C1=O (stereo not shown)
OUTPUT: 17

INPUT: Now try `O=C1C[C@@]2(C(=O)N1)C(=O)N(Cc1ccc(Br)cc1F)C(=O)c1ccccc12` .
OUTPUT: 87

INPUT: Again, but for O=C1CC2(C(=O)N1)C(=O)N(Cc1ccc(Br)cc1F)C(=O)c1cccc(F)c12 (stereo not shown)
OUTPUT: 44

INPUT: Same lookup for CCCCN1C(=O)c2ccccc2C2(CC(=O)NC2=O)C1=O (stereo not shown) , please.
OUTPUT: 19

INPUT: Further, for CN1C(=O)c2ccc(Br)cc2C2(CC(=O)NC2=O)C1=O (stereo not shown) ?
OUTPUT: 43

* * *

Record form. Attribute: % Lowering Dulcitol Accumulation IN VIVO, N (sciatic nerve). Fill in for each entry.
System: dulcitol accumulation in the sciatic nerve
protocol_summary: % lowering of dulcitol accumulation in sciatic nerve (N) of galactosemic rats
Format: in vivo, Sprague-Dawley
experimental_context: 3.0 mg/kg in diet, 4 days
Just the number please, in %, no unit attached.

INPUT: Recorded % Lowering Dulcitol Accumulation IN VIVO, N (sciatic nerve) of O=C1CC2(C(=O)N1)C(=O)N(Cc1ccc(Cl)c(Cl)c1)C(=O)c1ccccc12 (stereo not shown) , please.
OUTPUT: 76.0

INPUT: And for CN1C(=O)c2cc(Cl)ccc2C2(CC(=O)NC2=O)C1=O (stereo not shown) [H 7-Cl CH3] ?
OUTPUT: 21

INPUT: Queued: CN1C(=O)c2ccc(Cl)cc2C2(CC(=O)NC2=O)C1=O (stereo not shown) [6-Cl H CH3]
OUTPUT: 75

INPUT: Follow-up item: CN1C(=O)c2ccccc2C2(CC(=O)NC2=O)C1=O (stereo not shown) [H H CH3]
OUTPUT: 66.0

* * *

Test system: dulcitol accumulation in the lens
protocol_summary: % lowering of dulcitol accumulation in lens (L) of galactosemic rats
Assay type: in vivo, Sprague-Dawley
experimental_context: 3.0 mg/kg in diet, 4 days
measurement_name: % Lowering Dulcitol Accumulation IN VIVO, L (lens) (%)
A number alone suffices; assume %.

INPUT: # get_value(readout='% Lowering Dulcitol Accumulation IN VIVO, L (lens)', item= CN1C(=O)c2cc(Cl)ccc2C2(CC(=O)NC2=O)C1=O (stereo not shown) )
OUTPUT: 14

INPUT: What do you have for CN1C(=O)c2ccccc2C2(CC(=O)NC2=O)C1=O (stereo not shown) ?
OUTPUT: 43.0

INPUT: Do the same for O=C1CC2(C(=O)N1)C(=O)N(Cc1ccc(Cl)c(Cl)c1)C(=O)c1ccccc12 (stereo not shown) please
OUTPUT: 18.0

INPUT: Another compound: CN1C(=O)c2ccc(Cl)cc2C2(CC(=O)NC2=O)C1=O (stereo not shown)
OUTPUT: 59

* * *

assayed_system: aldose reductase (Bos taurus)
Construct: preparation of the enzyme from bovine lens; from tissue; host or cells: bovine lens
protocol_summary: in vitro aldose reductase inhibition (modified Hayman and Kinoshita; enzyme from bovine lens)
Type: biochemical
experimental_context: 10^-5 M; read-out: % Inhibition IN VITRO
Experimental: Only two minor reagent changes were made: (a) The rinsing mixture was an aqueous 5% (w/v) trichloroacetic acid solution and (b) the stock solution was prepared by dissolving 25 mg of dulcitol in 100 ml of an aqueous trichloroacetic acid solution. [N.B.: For each experiment the average value found in the tissue from rats fed the glucose diet was subtracted from the individual values found in the corresponding tissue in galactose-fed rats to obtain the amount of polyol accumulated.] […]
measurement_name: inhibition at 10 µM (%)
Use % as the unit, but write only the number.

INPUT: Endpoint output: inhibition at 10 µM of CN1C(=O)c2cc(Cl)ccc2C2(CC(=O)NC2=O)C1=O (stereo not drawn) . Value?
OUTPUT: 95

INPUT: Moving on to CCCCN1C(=O)c2ccccc2C2(CC(=O)NC2=O)C1=O (stereo not drawn)
OUTPUT: 99

INPUT: One more compound: O=C1CC2(C(=O)N1)C(=O)N(Cc1ccc(Br)cc1F)C(=O)c1cccc(F)c12 (stereo not drawn)
OUTPUT: 98

INPUT: Query O=C1CC2(C(=O)N1)C(=O)N(Cc1ccc(Br)cc1F)C(=O)c1cc(F)ccc12 (stereo not drawn) next
OUTPUT: 95

INPUT: Another compound: CN1C(=O)c2ccc(Br)cc2C2(CC(=O)NC2=O)C1=O (stereo not drawn)
OUTPUT: 100

INPUT: Note, next up: O=C1CC2(C(=O)N1)C(=O)N(Cc1ccc(Cl)c(Cl)c1)C(=O)c1ccccc12 (stereo not drawn)
OUTPUT: 100

* * *

assayed_system: aldose reductase (Bos taurus)
Construct: preparation of the enzyme from bovine lens; from tissue; host or cells: bovine lens
protocol_summary: in vitro aldose reductase inhibition (modified Hayman and Kinoshita; enzyme from bovine lens)
Assay type: biochemical
experimental_context: 10^-6 M; read-out: % Inhibition IN VITRO
measurement_name: inhibition at 1 µM (%)
Write the value in % as a bare number.

INPUT: Record O=C1CC2(C(=O)N1)C(=O)N(Cc1ccc(Cl)c(Cl)c1)C(=O)c1ccccc12 (stereo not drawn) : what is its inhibition at 1 µM with aldose reductase (Bos taurus)?
OUTPUT: 97

INPUT: How about this molecule: CN1C(=O)c2cc(Cl)ccc2C2(CC(=O)NC2=O)C1=O (stereo not drawn)
OUTPUT: 92

INPUT: Try the molecule O=C1CC2(C(=O)N1)C(=O)N(Cc1ccc(Br)cc1F)C(=O)c1cccc(F)c12 (stereo not drawn)
OUTPUT: 98

INPUT: For CN1C(=O)c2ccc(Br)cc2C2(CC(=O)NC2=O)C1=O (stereo not drawn) then?
OUTPUT: 100

INPUT: Next record, please: O=C1CC2(C(=O)N1)C(=O)N(Cc1ccc(Br)cc1F)C(=O)c1cc(Cl)ccc12 (stereo not drawn)
OUTPUT: 92

INPUT: // query: CCN1C(=O)c2ccccc2C2(CC(=O)NC2=O)C1=O (stereo not drawn)
OUTPUT: 76

* * *

Task for the reader: assign each of the following molecules its reported inhibition at 10 µM.
assayed_system: aldose reductase (Bos taurus)
Construct: preparation of the enzyme from bovine lens; from tissue; host or cells: bovine lens
protocol_summary: in vitro aldose reductase inhibition (modified Hayman and Kinoshita; enzyme from bovine lens)
Format: biochemical
experimental_context: read-out: % Inhibition IN VITRO

INPUT: // query inhibition at 10 µM value for entry `O=C1C[C@@]2(C(=O)N1)C(=O)N(Cc1ccc(Br)cc1F)C(=O)c1ccc(F)cc12`
OUTPUT: 99%

INPUT: For O=C1CC2(C(=O)N1)C(=O)N(Cc1ccc(Br)cc1F)C(=O)c1ccc(F)cc12 (stereo not shown) then?
OUTPUT: 97%

INPUT: Follow-up item: `O=C1C[C@@]2(C(=O)N1)C(=O)N(Cc1ccc(Br)cc1F)C(=O)c1ccccc12`
OUTPUT: 96%

INPUT: Next record, please: `O=C1C[C@]2(C(=O)N1)C(=O)N(Cc1ccc(Br)cc1F)C(=O)c1ccc(F)cc12`
OUTPUT: 98%

INPUT: Next molecule: CN1C(=O)c2ccc(Cl)cc2C2(CC(=O)NC2=O)C1=O (stereo not shown)
OUTPUT: 93%

INPUT: Item: O=C1CC2(C(=O)N1)C(=O)N(Cc1ccc(Br)cc1F)C(=O)c1cc(Cl)ccc12 (stereo not shown)
OUTPUT: 96%

INPUT: Moving on to O=C1CC2(C(=O)N1)C(=O)N(Cc1ccc(Br)cc1F)C(=O)c1c(F)cccc12 (stereo not shown)
OUTPUT: 96%

INPUT: Repeat for the following molecule: CCN1C(=O)c2ccccc2C2(CC(=O)NC2=O)C1=O (stereo not shown)
OUTPUT: 96%

INPUT: Try this molecule too: O=C1CC2(C(=O)N1)C(=O)N(Cc1ccc(Br)cc1F)C(=O)c1ccccc12 (stereo not shown)
OUTPUT: 96%

INPUT: Query CCCN1C(=O)c2ccccc2C2(CC(=O)NC2=O)C1=O (stereo not shown) next
OUTPUT: 94%
